tested_target: EED (1-441)-His protein (Homo sapiens)
Construct: 20 nM EED (1-441)-His protein
Sequence (O75530 whole entry): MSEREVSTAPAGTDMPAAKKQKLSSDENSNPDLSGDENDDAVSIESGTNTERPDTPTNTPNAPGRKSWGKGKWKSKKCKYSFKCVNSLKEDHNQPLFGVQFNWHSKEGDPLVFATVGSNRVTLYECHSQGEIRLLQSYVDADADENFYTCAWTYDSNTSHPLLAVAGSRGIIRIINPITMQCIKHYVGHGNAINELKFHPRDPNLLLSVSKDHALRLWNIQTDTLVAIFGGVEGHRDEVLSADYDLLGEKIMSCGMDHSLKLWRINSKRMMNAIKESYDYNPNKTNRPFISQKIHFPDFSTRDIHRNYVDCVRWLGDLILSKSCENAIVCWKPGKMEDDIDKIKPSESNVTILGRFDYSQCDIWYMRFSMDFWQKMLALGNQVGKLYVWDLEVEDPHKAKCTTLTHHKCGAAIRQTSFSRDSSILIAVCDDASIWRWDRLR
assay_summary: EED-H3K27Me3 peptide competition binding assay by AlphaScreen
cond: Table 4A, read-out: Alpha screen
quantity_measured: IC50 (nM)

compound=COc1cccc(F)c1CNc1ncc2c3c(ncn13)C(=O)N(C(C)C)Cc1nc(C(F)(F)F)ccc1-2 units_text=nM lt_gt_eq== reported_measurement=8.94
compound=O=C1OCc2ccc(C(F)(F)F)nc2-c2cnc(NCc3c(F)ccc4c3CCO4)n3cnc1c23 units_text=nM lt_gt_eq== reported_measurement=20.7
compound=Cc1nn(C)c2c1-c1cnc(NCc3c(F)ccc4c3CCO4)n3cnc(c13)C(=O)N(C1CC1)C2 units_text=nM lt_gt_eq== reported_measurement=4.49
compound=Cn1ncc2c1CNC(=O)c1ncn3c(NCc4c(F)ccc5c4CCO5)ncc-2c13 units_text=nM lt_gt_eq== reported_measurement=3.96
compound=O=C1OCc2nc(C(F)(F)F)ccc2-c2cnc(NCc3c(F)ccc4c3CCO4)n3cnc1c23 units_text=nM lt_gt_eq== reported_measurement=3.35
compound=Fc1ccc2c(c1CNc1ncc3c4c(ncn14)COCc1ncccc1-3)CCO2 units_text=nM lt_gt_eq=> reported_measurement=10
compound="CC1(O)CC(CN2Cc3cc(C(F)(F)F)ncc3-c3cnc(NCc4c(F)ccc5c4CCO5)n4cnc(c34)C2=O)C1 (stereo not drawn)" units_text=nM lt_gt_eq== reported_measurement=1.81
compound=CC(F)(F)CN1Cc2nc(C(F)(F)F)ccc2-c2cnc(NCc3c(F)ccc4c3CCO4)n3cnc(c23)C1=O units_text=nM lt_gt_eq== reported_measurement=1.9
compound=CC(F)(F)CN1Cc2cc(C(F)(F)F)ccc2-c2cnc(NCc3c(F)ccc4c3CCO4)n3cnc(c23)C1=O units_text=nM lt_gt_eq== reported_measurement=1.89
compound=O=C1c2ncn3c(NCc4c(F)ccc5c4CCO5)ncc(c23)-c2ccsc2CN1C1CC1 units_text=nM lt_gt_eq== reported_measurement=12.3
compound=O=C1c2ncn3c(NCc4c(F)ccc5c4CCO5)ncc(c23)-c2sccc2CN1C1CC1 units_text=nM lt_gt_eq== reported_measurement=11.1
compound=COc1cccc(F)c1CNc1ncc2c3c(ncn13)C(=O)N(C1CC1)Cc1nc(C(F)(F)F)ccc1-2 units_text=nM lt_gt_eq== reported_measurement=19.8
compound=O=S1(=O)CCc2cc(F)ccc2-c2cnc(NCc3c(F)ccc4c3CCO4)n3cnc1c23 units_text=nM lt_gt_eq== reported_measurement=21.9
compound="O=C1c2ncn3c(NCc4c(F)ccc5c4CCO5)ncc(c23)-c2ccc(C(F)(F)F)cc2CN1CC1COCCO1 (stereo not drawn)" units_text=nM lt_gt_eq== reported_measurement=3.86
compound="O=C1c2ncn3c(NCc4c(F)ccc5c4CCO5)ncc(c23)-c2nc(C(F)(F)F)ccc2CN1CC1COCCO1 (stereo not drawn)" units_text=nM lt_gt_eq== reported_measurement=10.5
